Task for the reader: assign each of the following compounds its reported pIC50.
Measurement target: EphA3-EphrinA5 (Homo sapiens, UniProt P29320)
Sequence (P29320 21-541 limits assumed): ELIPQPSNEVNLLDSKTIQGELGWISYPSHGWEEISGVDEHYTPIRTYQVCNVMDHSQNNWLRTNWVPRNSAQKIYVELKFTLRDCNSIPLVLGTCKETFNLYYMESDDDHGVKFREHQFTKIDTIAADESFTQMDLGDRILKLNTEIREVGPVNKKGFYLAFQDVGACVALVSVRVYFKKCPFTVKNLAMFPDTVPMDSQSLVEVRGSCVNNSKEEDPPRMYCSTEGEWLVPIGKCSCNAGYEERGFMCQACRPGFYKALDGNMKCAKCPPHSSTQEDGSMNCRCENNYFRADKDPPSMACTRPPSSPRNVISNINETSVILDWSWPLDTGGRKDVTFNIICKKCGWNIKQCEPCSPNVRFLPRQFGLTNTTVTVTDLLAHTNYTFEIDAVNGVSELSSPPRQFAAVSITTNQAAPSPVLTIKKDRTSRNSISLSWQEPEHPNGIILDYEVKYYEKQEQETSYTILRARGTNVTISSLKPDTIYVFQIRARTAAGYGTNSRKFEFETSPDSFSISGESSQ
Run description: Octet, immobilized human EphA3 binding to human EphrinA5
Cond: Human EphA3-EphrinA5; immobilized human EphA3; 50 nM soluble human EphrinA5; dissociation; relative; read-out: Relative Dissociation IC50
Give bare numbers, as −log10 of the molar value.

# Compound, pIC50
data = [
    ("O=[N+]([O-])c1cc(CN2CCOCC2)c2cccnc2c1O [Compound 10]", 6.10),
]

Task: Find pIC50 (EphA3-EphrinA5 (Homo sapiens, UniProt P29320)) for the entry Oc1ccc(CN2CCOCC2)c2cccnc12 [Compound 1, 5-(morpholinomethyl)quinolin-8-ol]
Result: 5.91
